experimental.protocol: protein stability index of a GFP-peptide fusion (yeast GPS) (PSI 1-4); higher = more stable; sorted into four equal gates, so the index is relative within each strain
condition.set: pdr5∆
quantity.kind: protein stability index
Give the value as a plain number.

In the examples that follow, each entry is paired with its recorded protein stability index.
INSERT INTO measurements (primary_sequence, observed_value) VALUES
  ('TSTKDKNSSTSNTEPIP [MED1]', 3.27),
  ('TTIKAIFDGNYGESDIH [YMR129W/POM152]', 2.97);

Quick one: give measured protein stability index for PKPDKPSGRTRGRSVMK [ESC2]
3.05

Quick one: give measured protein stability index for INTHIETLAYNSLKETL [SNF2]
2.76

Quick one: give measured protein stability index for RELTKNILWRIADKTTY [SIR4]
2.6

Quick one: give measured protein stability index for RYRLLSDVSDFEGWGHE [RPN1]
3.35

Quick one: give measured protein stability index for KALAIFVPVPSLAGFHK [RPS7A]
1.93

Quick one: give measured protein stability index for LLIRSKTEDPKGGIIAS [YML031W/NDC1]
2.36

Quick one: give measured protein stability index for VSEDLLDERGHEKIEDE [RPN4]
3.53
